# assayedTarget: glutathione S-transferase (Schistosoma japonicum GST tag binding GSH beads)
# protocolDescription: GST–glutathione bead interaction interference profiling – biochemical, multiplex beads, flow cytometry, profiling panel (AID 1769);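 also: target is a GST and green fluorescent protein fusion captured on glutathione beads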
# assayConditions: flow cytometry fluorescence
observationType: pEC50
Lab note — pEC50 values are minus log10 of concentrations in M.

Recall and state the measured pEC50 for COc1ccc(-c2cc(=O)c(C(=O)c3ccc(C)cc3)n[nH]2)cc1 . 5.39

Read the entry O=C(O)c1cccc(-n2cccc2/C=C2/NC(=O)N(c3ccc(Cl)cc3)C2=O)c1 and write its reported pEC50. 5.65

Provide measured pEC50 value, entry: Cc1cc(/C=c2\sc3nc4ccccc4n3c2=O)c(C)n1-c1ccc(C(=O)O)cc1 4.32

Kindly indicate its recorded pEC50. Item: NS(=O)(=O)c1ccc(Nc2nc(-c3ccc(O)cc3O)cs2)cc1 5.64

Note pEC50 for the compound shown: CSc1nc2ccc(NC(=O)C3CC(=O)N(Cc4ccco4)C3)cc2s1 (configuration not stated) 4.33

Annotate the compound Cc1cccc(/C=N/N(CCO)C2=NS(=O)(=O)c3ccccc32)c1 with its measured pEC50. 4.22

Quick one: give measured pEC50 for O=C(N/N=C/c1ccc2nccnc2c1)c1cccc([N+](=O)[O-])c1 5.07

Using the record for Cn1c(O)c(C2=c3ccccc3=NC2=O)[nH]c1=S , state its measured pEC50. 4.87

Recorded values, source PubChem BioAssay AID1769.
